B1: library; numbered along this chain (parent)
chain: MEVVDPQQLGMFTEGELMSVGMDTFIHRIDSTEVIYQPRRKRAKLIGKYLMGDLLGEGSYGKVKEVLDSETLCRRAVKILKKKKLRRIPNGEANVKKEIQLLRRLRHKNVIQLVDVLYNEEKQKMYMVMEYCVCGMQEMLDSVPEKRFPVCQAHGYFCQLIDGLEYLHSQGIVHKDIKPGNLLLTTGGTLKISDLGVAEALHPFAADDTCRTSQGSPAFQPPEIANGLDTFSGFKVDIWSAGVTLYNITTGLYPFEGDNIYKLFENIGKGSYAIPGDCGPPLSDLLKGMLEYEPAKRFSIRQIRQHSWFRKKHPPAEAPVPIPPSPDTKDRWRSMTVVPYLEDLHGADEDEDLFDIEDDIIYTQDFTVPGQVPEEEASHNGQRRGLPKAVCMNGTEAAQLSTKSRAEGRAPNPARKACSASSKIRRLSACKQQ

Variants of: B1
assay_info: STK11 functional score (HeLa growth suppression), rescaled enrichment; synonymous median = 1, nonsense median = 0 (normalised score)
test_parameters: with HeLa; variant type: missense
Output TRUE for records whose STK11 functional score is lower than 1, FALSE for records at or above 1.

* Y340T | FALSE
* A347F | FALSE
* Q220G | TRUE
* G268S | FALSE
* D115G | TRUE
* N412V | FALSE
* S213A | FALSE
* V66P | TRUE
* L184M | TRUE
* R405C | FALSE
* D327S | FALSE
